Just for reference, ChEMBL document CHEMBL1125185 is where these values come from.

Assay: Ionization constant for the compound
Type: physicochemical, Rattus norvegicus
Attribute: pKa

SMILES STR | pKa
CCCCc1nc(Cl)c(COC)n1Cc1ccc(-c2ccccc2C(=O)O)cc1 | 5
CCCCc1nc(Cl)c(CO)n1Cc1ccc(-c2ccccc2C(=O)NOCc2ccccc2)cc1 | 10.8
CCCCc1nc(Cl)c(CO)n1Cc1ccc(-c2ccccc2NS(=O)(=O)C(F)(F)F)cc1 | 4.5

---

System: Rattus norvegicus
Test: Blood pressure lowering activity in renal hypertensive rats after peroral administration
Type: functional

COMPOUND | VALUE RELATION SIGN | Activity (mg/kg)
CCCCc1nc(Cl)c(CNC(=O)OC)n1Cc1ccc(-c2ccccc2C(=O)O)cc1 | = | 30
CCCCc1nc(Cl)c(C(N)=O)n1Cc1ccc(-c2ccccc2C(=O)O)cc1 | = | 100
CCCCc1nc(Cl)c(CNC(=O)OC)n1Cc1ccc(-c2ccccc2-c2nn[nH]n2)cc1 | > | 10
CCCCc1nc(Cl)c(COC)n1Cc1ccc(-c2ccccc2Cc2nnn[nH]2)cc1 | = | 100
CCCCc1nc(Cl)c(CO)n1Cc1ccc(-c2ccccc2-c2[nH]nnc2C#N)cc1 | > | 10
CCCCc1nc(Cl)c(COC)n1Cc1ccc(-c2ccccc2C(=O)NNS(=O)(=O)C(F)(F)F)cc1 | > | 30
CCCCc1nc(Cl)c(COC)n1Cc1ccc(-c2ccccc2NS(=O)(=O)C(F)(F)F)cc1 | = | 100
CCCCc1nc(Cl)c(CO)n1Cc1ccc(-c2cccc(C)c2C(=O)O)cc1 | = | 10
CCCCc1nc(Br)c(CO)n1Cc1ccc(-c2ccccc2C(=O)O)cc1 | = | 30
CCCCc1nc(Cl)c(C(=O)O)n1Cc1ccc(-c2ccccc2C(=O)O)cc1 | > | 10
CCCCc1nc(Cl)c(/C=N/NC2=NCCN2)n1Cc1ccc(-c2ccccc2-c2nn[nH]n2)cc1 | = | 30
CCCCc1nc(Cl)c(C=O)n1Cc1ccc(-c2ccccc2-c2nn[nH]n2)cc1 | = | 3
CCCCc1nc(Cl)c(CO)n1Cc1ccc(-c2ccc(OC)cc2-c2nn[nH]n2)cc1 | > | 10
O=C(O)c1ccccc1-c1ccc(Cn2c(-c3ccccc3)nc(Cl)c2CO)cc1 | = | 100
CCc1nc(Cl)c(CO)n1Cc1ccc(-c2ccccc2C(=O)O)cc1 | = | 100
CCCCc1nc(Br)c(CO)n1Cc1ccc(-c2ccccc2-c2nn[nH]n2)cc1 | = | 3
CCCCc1nc(Cl)c(CNC(=O)OC23C[C@H]4C[C@@H](C2)C[C@@H](C3)C4)n1Cc1ccc(-c2ccccc2C(=O)O)cc1 | = | 30
CCCCc1nc(Cl)c(C(=O)OC)n1Cc1ccc(-c2ccccc2C(=O)O)cc1 | = | 100
CCCCc1nc(Cl)c(C(O)c2ccccc2)n1Cc1ccc(-c2ccccc2-c2nn[nH]n2)cc1 (centres undefined) | > | 30
